Data provenance is PubChem BioAssay AID720504.

Exercise: state measured max response, negative = inhibition for each of the compounds provided.
Target: Serine/threonine-protein kinase PLK1 (Homo sapiens) (UniProt P53350)
Sequence (P53350 whole entry, looked up, the tested form may be a part): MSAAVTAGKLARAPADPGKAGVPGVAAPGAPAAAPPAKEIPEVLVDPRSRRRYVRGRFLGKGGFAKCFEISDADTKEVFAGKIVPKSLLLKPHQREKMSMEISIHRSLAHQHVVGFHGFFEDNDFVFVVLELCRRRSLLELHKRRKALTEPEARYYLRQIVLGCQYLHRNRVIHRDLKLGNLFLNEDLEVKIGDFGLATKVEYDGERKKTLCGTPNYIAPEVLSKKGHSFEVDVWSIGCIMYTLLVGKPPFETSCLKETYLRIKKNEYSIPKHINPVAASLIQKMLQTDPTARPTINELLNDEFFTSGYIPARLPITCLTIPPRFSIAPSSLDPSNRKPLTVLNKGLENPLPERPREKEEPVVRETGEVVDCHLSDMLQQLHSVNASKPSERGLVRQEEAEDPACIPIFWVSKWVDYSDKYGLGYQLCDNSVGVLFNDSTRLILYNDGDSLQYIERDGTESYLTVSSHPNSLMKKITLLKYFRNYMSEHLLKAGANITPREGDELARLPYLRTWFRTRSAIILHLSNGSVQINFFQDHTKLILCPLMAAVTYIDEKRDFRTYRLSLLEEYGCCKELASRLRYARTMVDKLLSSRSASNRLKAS
Assay: qHTS for Inhibitors of PLK1-PDB (polo-like kinase 1 - polo-box domain): Primary Screen; note: series mostly up to about 57 µM; % is set by controls: 0 for no effect and ±100 for the full control effect; nearly all actives have a fitted effect of over 65% in size
Conditions: Plk1 PBD binding of FITC phosphopeptide, fluorescence polarization
Screen size: about 360,000 compounds; about 10,000 (2.8%) were called active. Another 4% or so got no clear call; they are omitted. The sample as a whole holds a higher share of actives than the screen did.
One number for each entry, in %.

# COMPOUND, VALUE UNIT, max response, negative = inhibition
rows = [
    ("NS(=O)(=O)c1ccc(CCNC(=O)CN2C(=O)c3ccccc3S2(=O)=O)cc1", "%", -4.84),
]

Hey, quick one: what's max response, negative = inhibition for each of these?
1. CC1CC(NC(=S)N(C)C)CC(C)(C)C1 (stereo unspecified)
2. O=C(COC(=O)c1ccc(O)cc1)Nc1nccs1
3. COc1cc(/C=N/NC(=S)Nc2cccnc2)cc(OC)c1O
4. CN(Cc1ccccc1F)c1cc2c(c3c1ccn3C)C1CCC2O1 (stereo unspecified)
5. COc1ccc(S(=O)(=O)N2CCCCCC2)cc1C(=O)N(C)Cc1cccc(OC)c1OC
6. O=C(C1CCN(Cc2ccc(Cl)cc2)CC1)N1CCN(Cc2ccc3c(c2)OCO3)CC1
7. CCOC(=O)CNc1nc(Cl)nc(Nc2ccc(OC)cc2OC)n1

-1.25
-1.48
-21
-4.37
-7.8
2.77
0.534

###

Target: Serine/threonine-protein kinase PLK1 (Homo sapiens) (UniProt P53350)
Experiment: qHTS for Inhibitors of PLK1-PDB (polo-like kinase 1 - polo-box domain): Primary Screen; note: series mostly up to about 57 µM; % is set by controls: 0 for no effect and ±100 for the full control effect; nearly all actives have a fitted effect of over 65% in size
Details: Plk1 PBD binding of FITC phosphopeptide, fluorescence polarization
Out of some 360,000 compounds screened, about 10,000 (2.8%) were called active. About 4% were inconclusive and are not listed. Only a selection was taken, and actives are over-represented in it overall.
Exercise: state measured max response, negative = inhibition for each of the compounds provided.
One number for each entry, in %.

// known answers, use as guide
# COMPOUND, max response, negative = inhibition [%]
measured = [
    ("Cc1csc(NC(=O)C2=COCCO2)n1", -3.95),
    ("CCN(CC)S(=O)(=O)c1cccc(NC(=O)c2ccc(S(=O)(=O)N3CCCC3)cc2)c1", 2.45),
    ("COc1ccccc1CNC(=O)c1ccc(CS(=O)(=O)c2ccccc2)o1", -4.65),
    ("COc1ccc(C(=O)NCC2CCCO2)cc1S(=O)(=O)NCc1ccc(Cl)cc1 (configuration not stated)", -11.7),
]

Hey, quick one: what's max response, negative = inhibition for each of these?
1. Cc1noc(C)c1NC(=O)N(C)C[C@@H]1Oc2cc(Br)ccc2S(=O)(=O)N([C@@H](C)CO)C[C@H]1C
2. Cc1cc(C(=O)N/N=C/c2ccc(O)c([N+](=O)[O-])c2)c(C)n1-c1ccc(F)cc1
3. CN(Cc1ccccc1)C(=O)CCC1CCN(C(=O)c2ccco2)CC1
4. COc1ccc(NC(=O)c2cc(=O)[nH]c3ccccc23)cc1S(=O)(=O)N1CCOCC1

[2.61, -24.1, -7.2, -1.4]

Hey, quick one: what's max response, negative = inhibition for each of these?
1. CC(NC(=O)c1ccco1)C(=O)Nc1nc(-c2ccccn2)cs1 (configuration not stated)
2. CC(=O)Nc1ccc(S(=O)(=O)Nc2ccc(N3CCCCC3)cc2)cc1
3. Cc1ccc(S(=O)(=O)N(CCc2ccccc2)c2ccc3c(c2)C2CC3CCN2C(=O)OCc2ccccc2)cc1 (configuration not stated)
4. CC1(C)OC(=O)C2=C(C[C@@H](C3CCCCC3)O[C@@H]2c2ccc(Cl)cc2)O1
5. CCCOc1ccc(F)cc1-c1cc(C(=O)Nc2ccc(F)cc2)[nH]n1
6. CCC(=O)N1CCC(C)(C(=O)Nc2cc(OC)c(OC)c(OC)c2)C1 (configuration not stated)

-15.6
-2.92
-9.82
-3.8
6.37
4.76

Hey, quick one: what's max response, negative = inhibition for each of these?
1. CCOC(=O)CSc1nccc(N(C)C)c1C#N
2. O=[N+]([O-])c1ccc(CN2CC(N3CCC(c4ccccc4)CC3)CS2(=O)=O)cc1 (configuration not stated)
3. COc1cccc(C(NC(C)=O)c2nc(-c3cnc4ccccc4c3)cs2)c1 (configuration not stated)
4. Cc1cccc(C(=O)OCC(=O)Nc2sccc2C(N)=O)c1C

-3.55
-13.3
-4.39
4.89

Hey, quick one: what's max response, negative = inhibition for each of these?
1. CCOC(=O)c1c(Cc2ccc(Cl)cc2)c[nH]c1C
2. O=C(N=C1SC2CS(=O)(=O)CC2N1Cc1ccccc1)c1ccccc1 (configuration not stated)

1. -3.47
2. -10.4

Hey, quick one: what's max response, negative = inhibition for each of these?
1. COc1cc(C(=O)N2CCN(C3CCC(C)CC3)CC2)cc(OC)c1OC (configuration not stated)
2. CCC(CC)c1nnc(NC(=O)C2=COCCO2)s1
3. OC[C@@H]1CN(C2CCCC2)C[C@H](n2cnc3c(NC4CCC4)ncnc32)O1
4. COCCCn1c(C(=O)NC2CCCCC2)cc2c(=O)n3cccc(C)c3nc21

1: -10; 2: -0.0349; 3: -3.48; 4: -6.64

Hey, quick one: what's max response, negative = inhibition for each of these?
1. CC1CCCCC1NC(=O)COc1ccc(C#N)cc1 (configuration not stated)
2. CCOc1ccc(Cl)cc1-c1cc(C(=O)NCc2cccs2)[nH]n1
3. CC(=O)N1c2ccc(S(=O)(=O)N(C)CC(=O)N(C)Cc3ccccc3)cc2CC1C (configuration not stated)
4. C[C@H]1CN([C@@H](C)CO)C(=O)CCCn2cc(nn2)CO[C@@H]1CN(C)S(=O)(=O)c1cccs1
5. COc1ccc(C2OC(CCc3ccccc3)Cc3[nH]c(=S)[nH]c(=O)c32)cc1 (configuration not stated)
6. O=C1CC(N2CCN(c3ccc(F)cc3)CC2)C(=O)N1c1ccccc1 (configuration not stated)
7. CCN(C(=O)CSc1ncn[nH]1)c1cccc2ccccc12
8. NC(=O)C1(N2CCCCC2)CCN(C(=S)Nc2ccc(Cl)cc2)CC1

1: -1.85; 2: -0.638; 3: 5.96; 4: -15.8; 5: -0.658; 6: -2.61; 7: -2.53; 8: 1.24

Hey, quick one: what's max response, negative = inhibition for each of these?
1. COC(=O)C[C@H]1C=C[C@H](NC(=O)c2ccc(F)cc2)[C@@H](CO)O1
2. COc1ccc(-c2cc(NC=O)c3ncc(-c4cccc(C(=O)N(C)C)c4)n3c2)c(OC)c1

-25.2
-16.4

Hey, quick one: what's max response, negative = inhibition for each of these?
1. C[C@H]1CN([C@@H](C)CO)C(=O)CCCn2nncc2CO[C@@H]1CN(C)S(=O)(=O)c1cccc(C#N)c1
2. COc1cccc(CNS(=O)(=O)c2ccc3c(c2)CC(C)N3C(=O)C2CCC2)c1 (configuration not stated)

-7.11
-3.29
